From: patent US20240294618A1

- target-or-system: T1, long-neurotoxin-taipan, recombinant, Taipan-Avi-His (coastal taipan (Oxyuranus scutatellus), UniProt A8HDK9 22-92)
- T1 construct: also called Taipan LNX; long-neurotoxin from Taipan
- T1 sequence: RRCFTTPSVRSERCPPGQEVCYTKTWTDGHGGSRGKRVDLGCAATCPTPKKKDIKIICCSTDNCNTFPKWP
- protocol: off-rate kinetics; platform not named
This section presents binders with their documented koff values.
assay-metric: koff (s⁻¹)

• SNEURO_P01_D09 FW germlined (antibody, V domains shown) VH: EVQLVESGGGLVQPGGSLRLSCAASGFTFSNFDMHWVRQATGKGLEWVSGLDHSGGAHYAGSVKGRFTISRENAKNSLYLQMNSLRAGDTAVYYCVRGTLYHYTSGSYYSDAFDIWGQGTLVTVSS VL: DIQMTQSPSSLSASVGDRVTITCQASQDISNYLNWYQQKPGKAPKLLIYAASSLESGVPSRFSGSGSGTDFTLTISSLQPEDFATYYCQQANSFPYTFGQGTKVEIK = 0.000366
• SNEURO_P01_D09 VK germlined (antibody, V domains shown) VH: EVQLVESGGGFVQPGGSLRLSCAASGFTFSNFDMHWVRQSPGKGLEWVSGLDHSGGAHYAGSVKGRFTISREDAKNSLDLQMNNLRVDDTAVYFCVRGTLYHYTSGSYYSDAFDIWGQGTLVTVSS VL: DIQMTQSPSSLSASVGDRVTITCQASQDISNYLNWYQQKPGKAPKLLIYAASSLESGVPSRFSGSGSGTDFTLTISSLQPEDFATYYCQQANSFPYTFGQGTKVEIK = 0.000392
• SNEURO_P01_D09 VK L3 NS->NT (antibody, V domains shown) VH: EVQLVESGGGFVQPGGSLRLSCAASGFTFSNFDMHWVRQSPGKGLEWVSGLDHSGGAHYAGSVKGRFTISREDAKNSLDLQMNNLRVDDTAVYFCVRGTLYHYTSGSYYSDAFDIWGQGTLVTVSS VL: EIVLTQSPSSLSASVGDRVTITCQASQDISNYLNWYQQKPGKAPKLLIYAASSLESGVPSRFSGSGSGTDFTLTISSQQPEDFATYYCQQANTFPYTFGQGTKVEIKR = 0.000769
• SNEURO_P01_D09 VH germlined (antibody, V domains shown) VH: EVQLVESGGGLVQPGGSLRLSCAASGFTFSNFDMHWVRQATGKGLEWVSGLDHSGGAHYAGSVKGRFTISRENAKNSLYLQMNSLRAGDTAVYYCVRGTLYHYTSGSYYSDAFDIWGQGTLVTVSS VL: EIVLTQSPSSLSASVGDRVTITCQASQDISNYLNWYQQKPGKAPKLLIYAASSLESGVPSRFSGSGSGTDFTLTISSQQPEDFATYYCQQANSFPYTFGQGTKVEIK = 0.000488
